System: HCT-15 colon
Experiment: NCI-60 one-dose screen, 48 h
Conditions: 10 µM unless noted
Compounds without any hit were thinned out: in the full panel of roughly 83,000, 20% have a hit. The source made the active and inactive calls. How the source made its calls: active means growth percent below 10; inactive means the rest.
Outcome codes: active, inactive

>>> label_value("COC(=O)[C@@]1(C)CC[C@]2(C)CC[C@]3(C)C4=CC=C5C(=CC(=O)C(O)=C5C)[C@]4(C)[C@@H](O)C[C@@]3(C)[C@@H]2C1")
"active"
>>> label_value("O=C1Nc2ccccc2/C1=N/N1C(=O)CN(CCCl)C1=O")
"inactive"
>>> label_value("Nc1cccc(-c2ccc(COc3ccc(CC4SC(=O)NC4=O)cc3)cc2)c1 (centres undefined)")
"inactive"
>>> label_value("c1cc(OCCN2CCCC2)ccc1CNc1ccc2nc(CCC3CCCCC3)[nH]c2c1")
"active"
>>> label_value("COc1ccc(-c2nc(SCC(=O)Nc3nc4ccc(C)cc4s3)[nH]c(=O)c2C#N)cc1OC")
"inactive"
>>> label_value("CC[C@@H](C(=O)[C@@H](C)[C@@H](O)[C@H](C)[C@@H]1O[C@@H]([C@@H](CC)C(=O)ONC(=O)c2ccccc2O)CC[C@@H]1C)C1O[C@]2(C=CC(=O)[C@]3(CC[C@@](C)([C@H]4CC[C@](O)(CC)[C@H](C)O4)O3)O2)[C@H](C)C[C@@H]1C (some centres undefined)")
"inactive"
>>> label_value("COc1ccc(CN2C(=O)OC(C)(COC(C)=O)C2=O)cc1 (centres undefined)")
"inactive"
>>> label_value("CN(C)CCCn1c2c(c3ccncc3c1=O)C(=O)c1ccccc1-2")
"active"
>>> label_value("Oc1ccc(-c2nc3ccc4[nH]ncc4c3c3c2CCCC3)c(F)c1")
"inactive"
